Target: T1, human PD-1 expressed on cells (human, UniProt Q15116 25-288)
T1 construct: whole, on cells; also called CHO-K1/huPD-1; CHO-K1-hPD-1 cells
T1 sequence (Q15116 25-288): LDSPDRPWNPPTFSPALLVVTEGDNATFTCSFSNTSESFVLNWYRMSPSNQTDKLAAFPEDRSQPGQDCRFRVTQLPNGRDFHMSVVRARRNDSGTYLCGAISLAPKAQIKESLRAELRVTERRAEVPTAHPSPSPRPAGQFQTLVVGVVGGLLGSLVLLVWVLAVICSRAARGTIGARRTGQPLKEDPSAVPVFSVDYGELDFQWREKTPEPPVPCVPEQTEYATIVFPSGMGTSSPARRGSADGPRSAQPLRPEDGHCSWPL
Experiment: cell RBA FACS; competitor PD-L1/Fc
Readout name: pIC50
pIC50 here: minus log base 10 of the concentration, concentration in moles per litre.

Field: example entries. Status: answers known.
{"columns": ["Binder", "Numeric result"],
 "data": [
  ["HumAb713-6 (antibody, human IgG1, kappa, L234A L235A, V domains shown, humanized mAb713; also called HurnAb713-6) VH: EVQLVESGGGLVQPGGSLRLSCAASGFTFSDYGMHWVRQAPGKGLEWVSYISSGSYTIYYADTVKGRFTISRDNAKNSLYLQMNSLRDEDTAVYYCAKRGGSSHVNVMDYWGQGTTVTVSS VL: DIQMTQSPSSLSASVGDRVTITCKASDHINNWLAWYQQKPGKAPKLLIYGATSLETGVPSRFSGSGSGTDYTFTISSLQPEDIATYYCQQYWSPPYTFGGGTKVEIKR", 8.98],
  ["HumAb713-15 (antibody, human IgG1, kappa, L234A L235A, V domains shown, humanized mAb713) VH: EVQLVESGGGLVQPGGSLRLSCAASGFTSSDYGMHWVRQAPGKGLEWVSYISSGSYTIYYADTVKGRFTISRDNAKNSLYLQMNSLRDEDTAVYYCAKRGGSSHVNVMDYWGQGTTVTVSS VL: DIQMTQSPSSLSASVGDRVTITCKASDHINNWLAWYQQKPGKAPKLLISGATSLETGVPSRFSGSGSGKDYTFTISSLQPEDIATYYCQQYWSPPYTFGGGTKVEIKR", 9.06]
]}

Notebook: HumAb713-16 (antibody, human IgG1, kappa, L234A L235A, V domains shown, humanized mAb713) VH: EVQLVESGGGLVQPGGSLRLSCAASGFTSSDYGMHWVRQAPGKGLEWVAYISSGSYTIYYADTVKGRFTISRDNAKNSLYLQMNSLRDEDTAVYYCAKRGGSSHVNVMDYWGQGTTVTVSS VL: DIQMTQSPSSLSASVGDRVTITCKASDHINNWLAWYQQKPGKAPKLLISGATSLETGVPSRFSGSGSGKDYTFTISSLQPEDIATYYCQQYWSPPYTFGGGTKVEIKR , pIC50 read as 9.19
